Source of measurements: BigSolDB 2.1

conditions: in acetonitrile, 303.15 K
test readout: solubility (mole fraction)

solubility (mole fraction) measured on CC(C)OC(=O)[C@H](C)N[P@](=O)(OC[C@H]1O[C@@H](n2ccc(=O)[nH]c2=O)[C@](C)(F)[C@@H]1O)Oc1ccccc1 = 0.0156

###

conditions: in toluene, 288.15 K
test readout: solubility (mole fraction)
I only need the number, thanks.

solubility (mole fraction) measured on CC(C)OC(=O)[C@H](C)N[P@](=O)(OC[C@H]1O[C@@H](n2ccc(=O)[nH]c2=O)[C@](C)(F)[C@@H]1O)Oc1ccccc1 = 1.1e-05

###

conditions: in acetonitrile, 283.15 K
test readout: solubility (mole fraction)
I only need the number, thanks.

solubility (mole fraction) measured on CC(C)OC(=O)[C@H](C)N[P@](=O)(OC[C@H]1O[C@@H](n2ccc(=O)[nH]c2=O)[C@](C)(F)[C@@H]1O)Oc1ccccc1 = 0.00629

###

details: in water, 298.15 K
test readout: solubility (mole fraction)
I only need the number, thanks.

solubility (mole fraction) measured on CC(C)OC(=O)[C@H](C)N[P@](=O)(OC[C@H]1O[C@@H](n2ccc(=O)[nH]c2=O)[C@](C)(F)[C@@H]1O)Oc1ccccc1 = 5.05e-05

###

conditions: in acetone, 313.15 K
test readout: solubility (mole fraction)
I only need the number, thanks.

solubility (mole fraction) measured on CC(C)OC(=O)[C@H](C)N[P@](=O)(OC[C@H]1O[C@@H](n2ccc(=O)[nH]c2=O)[C@](C)(F)[C@@H]1O)Oc1ccccc1 = 0.113

###

settings: in water, 303.15 K
test readout: solubility (mole fraction)
I only need the number, thanks.

solubility (mole fraction) measured on CC(C)OC(=O)[C@H](C)N[P@](=O)(OC[C@H]1O[C@@H](n2ccc(=O)[nH]c2=O)[C@](C)(F)[C@@H]1O)Oc1ccccc1 = 7.02e-05

###

settings: in ethanol, 283.15 K
test readout: solubility (mole fraction)
I only need the number, thanks.

solubility (mole fraction) measured on CC(C)OC(=O)[C@H](C)N[P@](=O)(OC[C@H]1O[C@@H](n2ccc(=O)[nH]c2=O)[C@](C)(F)[C@@H]1O)Oc1ccccc1 = 0.0274

###

conditions: in acetone, 283.15 K
test readout: solubility (mole fraction)
I only need the number, thanks.

solubility (mole fraction) measured on CC(C)OC(=O)[C@H](C)N[P@](=O)(OC[C@H]1O[C@@H](n2ccc(=O)[nH]c2=O)[C@](C)(F)[C@@H]1O)Oc1ccccc1 = 0.0343

###

conditions: in acetonitrile, 318.15 K
test readout: solubility (mole fraction)
I only need the number, thanks.

solubility (mole fraction) measured on CC(C)OC(=O)[C@H](C)N[P@](=O)(OC[C@H]1O[C@@H](n2ccc(=O)[nH]c2=O)[C@](C)(F)[C@@H]1O)Oc1ccccc1 = 0.0286

###

settings: in cyclohexane, 308.15 K
test readout: solubility (mole fraction)
I only need the number, thanks.

solubility (mole fraction) measured on CC(C)OC(=O)[C@H](C)N[P@](=O)(OC[C@H]1O[C@@H](n2ccc(=O)[nH]c2=O)[C@](C)(F)[C@@H]1O)Oc1ccccc1 = 4.33e-06

###

conditions: in water, 283.15 K
test readout: solubility (mole fraction)
I only need the number, thanks.

solubility (mole fraction) measured on CC(C)OC(=O)[C@H](C)N[P@](=O)(OC[C@H]1O[C@@H](n2ccc(=O)[nH]c2=O)[C@](C)(F)[C@@H]1O)Oc1ccccc1 = 1.85e-05
